Tested on: BV2 microglial cells
Experiment: cytotoxicity, MTT assay
Format: cell-based, mouse
Conditions: 5.0 μM, 24 h, BV2 microglial cells, n = 3; in % (unit assumed)
reported property: Cell Viability
Answers are plain numbers.

Some entries whose results are on file:
{"compound": "CCCCOC(=O)C1OC(OC2CCC3(C)C(CCC4(C)C3CC=C3C5C(C(=O)OC6OC(CO)C(O)C(O)C6O)(CCC(C)C5(C)O)CCC34C)C2(C)C)C(O)C(OS(=O)(=O)O)C1O (centres unmarked)", "test system": "BV2 microglial cells", "Cell Viability": 98.32}
{"compound": "C[C@H]1CC[C@]2(C(=O)O[C@@H]3O[C@H](CO)[C@@H](O)[C@H](O)[C@H]3O)CC[C@]3(C)C(=CCC4[C@@]5(C)CC[C@H](O[C@@H]6OC[C@@H](O)[C@H](O)[C@H]6OS(=O)(=O)O)C(C)(C)C5CC[C@]43C)C2[C@]1(C)O (some centres unmarked)", "test system": "BV2 microglial cells", "Cell Viability": 98.21}
{"compound": "C[C@@H]1CC[C@]2(C(=O)O[C@@H]3O[C@H](CO)[C@@H](O)[C@H](O)[C@H]3O)CC[C@]3(C)C(=CCC4[C@@]5(C)CC[C@H](OS(=O)(=O)[O-])[C@](C)(CO)C5CC[C@]43C)[C@@H]2[C@]1(C)O.[Na+] (some centres unmarked) [Compound 6, ilexoside XXXV]", "test system": "BV2 microglial cells", "Cell Viability": 102.21}
{"compound": "C=C1CC[C@]2(C(=O)O[C@@H]3O[C@H](CO)[C@@H](O)[C@H](O)[C@H]3O[C@@H]3O[C@@H](C)[C@H](O)[C@@H](O)[C@H]3O)CC[C@]3(C)C(=CC[C@@H]4[C@@]5(C)CC[C@H](O[C@@H]6OC[C@H](O)[C@H](O[C@@H]7O[C@H](CO)[C@@H](O)[C@H](O)[C@H]7O[C@@H]7O[C@H](CO)[C@@H](O)[C@H](O)[C@H]7O)[C@H]6O[C@@H]6O[C@@H](C)[C@H](O)[C@@H](O)[C@H]6O)C(C)(C)[C@@H]5CC[C@]43C)[C@@H]2[C@]1(C)O [Compound 7, ilekudinoside F]", "test system": "BV2 microglial cells", "Cell Viability": 101.55}
{"compound": "C[C@H]1CC[C@]2(C(=O)O[C@@H]3O[C@H](CO)[C@@H](O)[C@H](O)[C@H]3O)CC[C@]3(C)C(=CCC4[C@@]5(C)CC[C@H](O[C@@H]6OC[C@H](O)[C@H](OS(=O)(=O)O)[C@H]6O)C(C)(C)C5CC[C@]43C)C2[C@]1(C)O (some centres unmarked)", "test system": "BV2 microglial cells", "Cell Viability": 99.36}
{"compound": "CCCCOC(=O)C1OC(OC2CCC3(C)C(CCC4(C)C3CC=C3C5C(C(=O)OC6OC(CO)C(O)C(O)C6O)(CCC(C)C5(C)O)CCC34C)C2(C)C)C(O)C(O)C1O (centres unmarked)", "test system": "BV2 microglial cells", "Cell Viability": 99.74}
{"compound": "C[C@@H]1C[C@H]2[C@@H]3CCC4=CC(=O)C=C[C@]4(C)[C@@]3(F)[C@@H](O)C[C@]2(C)[C@@]1(O)C(=O)CO [Dexamethasone, reference compound]", "test system": "BV2 microglial cells", "Cell Viability": 101.02}

What measured Cell Viability goes with C[C@@H]1CC[C@]2(C(=O)O[C@@H]3O[C@H](CO)[C@@H](O)[C@H](O)[C@H]3O)CC[C@]3(C)C(=CCC4[C@@]5(C)CC[C@H](O[C@@H]6O[C@H](CO)[C@@H](O)[C@H](O)[C@H]6O[C@@H]6O[C@H](CO)[C@@H](O[C@@H]7O[C@H](CO)[C@@H](O)[C@H](O)[C@H]7O)[C@H](O)[C@H]6O)C(C)(C)C5CC[C@]43C)[C@@H]2[C@]1(C)O (some centres unmarked) [Compound 3, hylonoside II] ?
91.74
